# target-of-assay: Strep-TM4SF5 obtained from HEK293FT (Homo sapiens)
# Construct: expressed in transfected cells; host or cells: HEK293FT, transient transfection (48 h); protein captured on streptavidin agarose from the cell extract
# Sequence (O14894 whole entry): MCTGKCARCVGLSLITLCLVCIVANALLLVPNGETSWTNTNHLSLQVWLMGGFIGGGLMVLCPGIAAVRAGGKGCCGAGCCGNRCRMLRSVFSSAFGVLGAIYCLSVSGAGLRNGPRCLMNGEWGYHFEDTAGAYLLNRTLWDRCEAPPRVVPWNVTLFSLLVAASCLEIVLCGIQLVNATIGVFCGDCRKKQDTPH
# assay-summary: Binding of 14C-labelled ST-5-002 to pulled-down Strep-TM4SF5
# study-conditions: range depending on the cell source and the type of tag (Strep-TM4SF5 and HA-TM4SF5); read-out: EC50 values of binding to TM4SF5
pEC50: −log10 of the molar value.

cpd-smiles	pEC50
Cc1ccc(C(=O)Nc2ccc(-c3cc(-c4ccc(O)cc4)no3)cc2)cc1	5.06 to 6.07
